Just for reference, paper PMC5949723 is where these values come from.

Biological target: full length recombinant hPDE4B1 (Homo sapiens)
Sequence (Q07343 whole entry): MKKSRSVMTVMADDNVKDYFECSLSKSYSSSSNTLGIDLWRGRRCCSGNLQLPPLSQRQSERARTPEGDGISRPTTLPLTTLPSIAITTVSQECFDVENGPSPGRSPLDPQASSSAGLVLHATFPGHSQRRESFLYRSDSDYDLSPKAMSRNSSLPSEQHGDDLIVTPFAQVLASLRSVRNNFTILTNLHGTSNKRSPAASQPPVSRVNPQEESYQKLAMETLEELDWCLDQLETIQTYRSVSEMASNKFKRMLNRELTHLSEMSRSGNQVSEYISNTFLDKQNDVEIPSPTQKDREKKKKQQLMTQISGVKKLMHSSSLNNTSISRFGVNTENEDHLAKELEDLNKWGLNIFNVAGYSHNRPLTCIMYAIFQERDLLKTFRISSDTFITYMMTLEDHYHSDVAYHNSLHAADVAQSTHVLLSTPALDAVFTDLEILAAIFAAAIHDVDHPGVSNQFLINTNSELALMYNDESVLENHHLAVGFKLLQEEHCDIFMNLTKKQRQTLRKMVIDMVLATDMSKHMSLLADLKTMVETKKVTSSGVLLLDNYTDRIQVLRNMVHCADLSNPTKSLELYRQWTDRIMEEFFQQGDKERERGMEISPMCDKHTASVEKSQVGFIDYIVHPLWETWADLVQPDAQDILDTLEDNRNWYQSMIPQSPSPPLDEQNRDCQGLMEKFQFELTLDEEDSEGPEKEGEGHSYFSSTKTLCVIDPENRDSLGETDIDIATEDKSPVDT
Experiment: Phosphodiesterase activity assay
metric.name: pKi
Bear in mind: pKi is minus log10 of a mol/L concentration; give just that figure.

Example molecules with recorded pKi:
COc1ccc(C2=NN(C3CCCCCC3)C(=O)[C@@H]3CC=CC[C@H]23)cc1-c1ccc(C(=O)NCC(N)=O)cc1 (relative stereo) [compound 8]    6.00
COc1ccc(C2=NN(C(C)C)C(=O)C3CC=CCC23)cc1-c1ccc(C(=O)N2CC[C@@H](O)C2)cc1 (mixture of isomers) [compound 22]    5.50

# ---- query molecule ----
Q: Indicate its recorded pKi; the molecule in question is COc1ccc(C2=NN(C(C)C)C(=O)C3CC=CCC23)cc1-c1ccc(C(=O)N2CCC[C@@H]2C(N)=O)cc1 (mixture of isomers) [compound 24]
Result: 5.00
